Molecular target: T1, 4H235-bH
T1 chain: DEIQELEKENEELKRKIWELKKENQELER
Assay: two-hybrid library CCNG1;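 note: natural log of median RNA to DNA barcode read ratio; higher means stronger binding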
# label = true (1) if interaction score >= 0.2 else false (0)

Would you please look over these solved cases?
>>> print(df.to_string())
                                     binder      label
0  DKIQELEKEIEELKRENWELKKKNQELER [4H2143-bH]  false (0)
1  DKIQELEKENEELKREIWELKKKIQELER [4H2253-bH]  false (0)
2  DEIQELEKENEELKRKIWELKKENQELER [4H235-bH]   true (1)
3  DKIQELEKEIEELKRKNWELEKEIQELKR [4H2162-bH]   true (1)

INPUT: Hi, just wondering whether DEIQELEKENEELERKIWELEKKIQELKR [4H166-bH] shows interaction score of 0.2 or higher.
OUTPUT: false (0)

INPUT: Hi, just wondering whether DKIQELEKENEELERKNWELKKEIQELER [4H2233-bH] shows interaction score of 0.2 or higher.
OUTPUT: false (0)
